Kd reference
TARGET: T1, recombinant human Tau monomer, 2N4R isoform (amino acids 2-441) (human, UniProt P10636-8 2-441)
T1 construct: range 2-441; N-terminal His-tag removed with TEV protease; also called monomeric Tau
T1 sequence (P10636 other isoform, or with tags, fused parts or gaps limits assumed): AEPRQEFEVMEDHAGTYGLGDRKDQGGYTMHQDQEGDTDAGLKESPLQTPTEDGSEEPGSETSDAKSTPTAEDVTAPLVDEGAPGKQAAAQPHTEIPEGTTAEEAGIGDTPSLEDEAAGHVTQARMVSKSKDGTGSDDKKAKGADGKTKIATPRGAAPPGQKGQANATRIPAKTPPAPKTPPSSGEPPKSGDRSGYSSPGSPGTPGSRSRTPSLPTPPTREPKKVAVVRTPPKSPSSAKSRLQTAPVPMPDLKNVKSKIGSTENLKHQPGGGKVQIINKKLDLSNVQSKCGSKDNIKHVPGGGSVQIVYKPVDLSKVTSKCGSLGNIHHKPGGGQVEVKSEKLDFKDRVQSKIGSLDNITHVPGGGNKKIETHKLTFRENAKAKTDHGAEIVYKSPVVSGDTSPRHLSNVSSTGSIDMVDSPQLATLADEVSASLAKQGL
ASSAY OVERVIEW: SPR, mIgG2a captured, Tau monomer analyte, 1:1 fit
Write it as a number; the unit nM goes unstated.

Consider the worked cases shown below.
{"columns": ["BINDER", "UNIT", "Kd"],
 "data": [
  ["125B11-H3 (antibody, mouse IgG2a, V domains shown, also called 125B1-H3) VH: EVKLEESGGGLVQPGGSMKLSCVASRFIFSNYWMNWVRQSPEKGLEWVAQIRLKSDNYATHYAESVKGRFTISRDDSKSSVYLQMNNLRAEDTGIYYCTGGTTYWGQGTTLTVSS VL: DIVMTQSQKFLSTSVGDRVNITCKASQNVGTAVAWYQQKPGQSPGLLIYSASIRYTGVPDRFTGNGSGTDFTLTISDMQSEDLADYFCQQFRTYPYTFGGGTKLEIK", "nM", 5],
  ["3A4-H4 (antibody, mouse IgG2a, V domains shown) VH: EVQLVESGGDLVKPGGSLKLSCAASGFTFSSYGMSWVRQTPDKRLEWVATISSGGTYTYYPDSVKGRFTISRDNAKNTLYLQMSSLKSEDTAMYFCATSYDGAMDYWGQGTSVTVSS VL: DVLMTQTPLSLPVSLGDQASISCRSSQNIVHSNGNTYLEWYLQKPGQSPKLLIYKVSNRFSGVPDRFSGSGSGTDFTLKISRVEAEDLGVYYCFQGTLVPWTFGGGTKLEIK", "nM", 12],
  ["30G1-B2 (antibody, mouse IgG2a, V domains shown) VH: QVQLQQSGAELVRPGASVTLSCKASGYTFTDYEMYWVKQTPVHGLEWIGAIDPETGDTAYNQKFKGKATLTADKSSNTAYMELRSLTSEDSAVYYCIRQYGNWFPYWGQGTLVTVSA VL: DVVMTQTPLSLPVSLGDQASISCRSSQSLVHANGNTYLHWFLQKPGLSPKLLIYKVSNRFSGVPDRFSGGGSGTDFTLKITRLEAEDLGVYFCSQSTHVPFTFGSGTKLEIK", "nM", 20],
  ["37D3-H9 (antibody, mouse IgG2a, V domains shown, also called 37D3-H9 mIgG2a; 37D3-H9 IgG) VH: EVQLVESGGDLAKPGGSLKLSCTASGLIFRSYGMSWVRQTPDKRLEWVATINSGGTYTYYPDSVKGRFTISRDNAKNTLYLQMSSLKSEDTAMYYCANSYSGAMDYWGQGTSVTVSS VL: DDLLTQTPLSLPVSLGDPASISCRSSQSIVHSNGNTYFEWYLQKPGQSPKLLIYKVSNRFSGVPDRFSGSGSGTDFTLKISRVEAEDLGVYYCFQGSLVPWTFGGGTKLEIK", "nM", 1.6]
]}

Tell me Kd reported for 55E7-F11 (antibody, mouse IgG2a, V domains shown) VH: EVKLEESGGGLVQPGGSMKLSCVASGFTFSNYWMNWVRQSPEKGLEWVAQIRLKSDNYATHYAESVKGRFTISRDDSKSSVYLQMNNLRAEDTGIYYCAGYFYGGYFDVWGTGTTVTVSS VL: ELVLTQSPTTMAASPGKKITITCSASSSISSNYLHWYQQKPGFSPKLLIYRTSNLASGVPARFSGSGSGTSYSLTIGTMEAEDVATYYCQQGSSLPFTFGSGTKLEIK
171

Tell me Kd reported for 126F11-G11 (antibody, mouse IgG2a, V domains shown) VH: EVQLQQSGAELVRPGASVKLSCTASGFNIKDDYMHWVKQRPEQGLEWIGWIDPENGDTEYASKFQGKATITTDTSSNTAYLQLSSLTSEDTAVYYCLDFAYGYWGQGTTLTVSS VL: DVLMTQTPLSLPVSLGDQASISCRSSQSIVHSNGNTYLEWYLQKPGQSPKLLIYKVSNRFSGVPDRFSGSGSGTDFTLKISRVEAEDLGVYYCFQGSHVPPAFGGGTKLEIK
3

Ref: patent US20190367592A1
